Some compounds, each annotated with its measured melting point.

[
  {
    "compound": "CC(=O)OCCCc1ccc(-c2ccc3cc(C(=O)OCc4ccccc4)ccc3c2)cc1C12CC3CC(CC(C3)C1)C2",
    "melting point": "132 °C"
  },
  {
    "compound": "O=C(c1ccc(Cl)cc1)[C@H]1C[C@H]1C(=O)N1CCC(N2Cc3ccccc3NC2=O)CC1 (relative stereo)",
    "melting point": "272 to 273 °C"
  },
  {
    "compound": "CCOC(=O)c1cnn2c(-c3ccsc3)ccnc12",
    "melting point": "129 to 130 °C"
  },
  {
    "compound": "COC(=O)CC/C(C)=C/Cc1c(OC)c(C)c2c(c1OS(=O)(=O)C(F)(F)F)C(=O)OC2",
    "melting point": "53 to 55 °C"
  },
  {
    "compound": "CC(=O)Nc1ccc(-c2ccc3c(c2)CC(C(=O)O)O3)cc1 (stereo not given)",
    "melting point": "274 to 276 °C"
  },
  {
    "compound": "O=CNC1Cc2cc(Br)ccc2N(C=O)C1 (stereo not given)",
    "melting point": "174 to 178 °C"
  },
  {
    "compound": "Cc1cc(C)c(-c2nc(Cl)nc(Cl)n2)c(C)c1",
    "melting point": "85 to 91 °C"
  },
  {
    "compound": "CCC1(CCC(=O)OC(C)(C)C)CCCN2CCc3c([nH]c4ccccc34)C21 (stereo not given)",
    "melting point": "194 to 195 °C"
  },
  {
    "compound": "OCc1ccc(Oc2cccnc2)c(C(F)(F)F)c1",
    "melting point": "96 °C"
  },
  {
    "compound": "CCCCCCCCCC1SC(c2cccnc2)NC1=O (stereo not given)",
    "melting point": "90 to 95 °C"
  }
]
